Exercise: for every item that follows, state its recorded inhibition.
Target: Voltage-dependent N-type calcium channel subunit alpha-1B (Homo sapiens) (UniProt Q00975)
Sequence (Q00975 whole entry, looked up): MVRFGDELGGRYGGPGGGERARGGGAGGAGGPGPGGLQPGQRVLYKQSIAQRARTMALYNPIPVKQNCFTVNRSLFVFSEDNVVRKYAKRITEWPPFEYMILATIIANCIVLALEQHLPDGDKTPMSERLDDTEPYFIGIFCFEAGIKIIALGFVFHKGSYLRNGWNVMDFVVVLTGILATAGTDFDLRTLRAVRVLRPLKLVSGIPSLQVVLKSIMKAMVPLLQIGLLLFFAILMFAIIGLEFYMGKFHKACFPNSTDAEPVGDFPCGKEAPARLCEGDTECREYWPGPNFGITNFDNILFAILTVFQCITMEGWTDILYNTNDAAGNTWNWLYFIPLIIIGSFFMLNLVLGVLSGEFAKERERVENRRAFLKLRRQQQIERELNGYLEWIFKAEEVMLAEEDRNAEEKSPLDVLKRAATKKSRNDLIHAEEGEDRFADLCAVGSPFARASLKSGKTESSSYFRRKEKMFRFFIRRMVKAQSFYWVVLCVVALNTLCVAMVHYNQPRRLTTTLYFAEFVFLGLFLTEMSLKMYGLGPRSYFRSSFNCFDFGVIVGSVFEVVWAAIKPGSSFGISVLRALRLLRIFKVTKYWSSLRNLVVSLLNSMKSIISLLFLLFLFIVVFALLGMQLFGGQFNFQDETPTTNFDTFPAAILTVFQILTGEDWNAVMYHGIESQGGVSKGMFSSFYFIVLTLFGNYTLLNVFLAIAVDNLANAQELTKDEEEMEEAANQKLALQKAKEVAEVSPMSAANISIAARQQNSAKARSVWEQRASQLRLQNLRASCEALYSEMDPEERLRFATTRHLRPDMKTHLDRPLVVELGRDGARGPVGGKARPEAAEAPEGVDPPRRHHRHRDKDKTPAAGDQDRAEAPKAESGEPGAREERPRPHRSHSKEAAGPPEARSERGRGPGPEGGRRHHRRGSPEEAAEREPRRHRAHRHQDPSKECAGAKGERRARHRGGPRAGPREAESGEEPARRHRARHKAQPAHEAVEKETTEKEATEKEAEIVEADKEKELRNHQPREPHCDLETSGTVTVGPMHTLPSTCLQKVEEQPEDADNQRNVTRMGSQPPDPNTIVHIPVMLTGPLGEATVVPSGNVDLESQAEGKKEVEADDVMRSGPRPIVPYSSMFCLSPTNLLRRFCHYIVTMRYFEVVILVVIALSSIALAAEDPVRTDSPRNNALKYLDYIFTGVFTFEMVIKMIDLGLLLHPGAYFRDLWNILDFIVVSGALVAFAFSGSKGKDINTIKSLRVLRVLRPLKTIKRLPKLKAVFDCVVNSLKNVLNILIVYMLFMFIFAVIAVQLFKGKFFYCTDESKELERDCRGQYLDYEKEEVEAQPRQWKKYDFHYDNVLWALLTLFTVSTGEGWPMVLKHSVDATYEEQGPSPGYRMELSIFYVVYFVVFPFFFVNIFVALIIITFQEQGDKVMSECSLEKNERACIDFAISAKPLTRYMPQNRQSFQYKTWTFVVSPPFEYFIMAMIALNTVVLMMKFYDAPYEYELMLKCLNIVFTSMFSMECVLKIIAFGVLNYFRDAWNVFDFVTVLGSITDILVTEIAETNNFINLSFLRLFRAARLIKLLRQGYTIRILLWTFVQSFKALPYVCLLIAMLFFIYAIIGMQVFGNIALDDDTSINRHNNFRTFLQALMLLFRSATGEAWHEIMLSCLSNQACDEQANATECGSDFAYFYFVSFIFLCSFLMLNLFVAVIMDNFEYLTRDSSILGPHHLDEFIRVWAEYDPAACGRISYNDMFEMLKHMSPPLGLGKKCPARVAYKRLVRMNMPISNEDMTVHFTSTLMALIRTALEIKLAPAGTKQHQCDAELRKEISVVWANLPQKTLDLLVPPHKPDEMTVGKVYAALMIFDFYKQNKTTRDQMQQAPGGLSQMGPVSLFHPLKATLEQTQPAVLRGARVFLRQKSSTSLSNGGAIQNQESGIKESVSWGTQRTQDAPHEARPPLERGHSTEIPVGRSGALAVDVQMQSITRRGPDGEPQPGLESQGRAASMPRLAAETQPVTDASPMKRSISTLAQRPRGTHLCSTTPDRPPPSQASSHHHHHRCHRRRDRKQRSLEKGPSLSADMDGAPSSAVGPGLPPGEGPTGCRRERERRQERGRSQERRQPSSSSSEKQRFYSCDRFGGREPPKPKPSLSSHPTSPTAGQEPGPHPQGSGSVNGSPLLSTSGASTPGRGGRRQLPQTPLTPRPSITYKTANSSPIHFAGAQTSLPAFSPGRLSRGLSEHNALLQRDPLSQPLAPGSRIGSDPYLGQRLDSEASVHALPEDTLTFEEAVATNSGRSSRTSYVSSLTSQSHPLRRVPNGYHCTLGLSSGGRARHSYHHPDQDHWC
Test: disruptors of CaV2.2 binding to Mint1 – biochemical, HTRF (AID 2073)
Conditions: HTRF protein-protein interaction, Mint1-CaV2.2; at 20 µM; stronger effect = higher value
Hit rate of the full screen: of about 290,000 compounds, about 570 (0.2%) were called active. Another 1% or so got no clear call; they are omitted. What follows is part of a selection rich in actives, with near analogues and random picks from the rest.
Numbers only, in %.

Record excerpt, results attached:
CC1=CCC2C(=O)N(c3ccc(C)cc3)C(=O)C2C1 (stereo unspecified) : 6.6
O=C(/C=C/Nc1ccccc1)c1ccccc1 : -0.7
CCCCn1ccnc1C : -1.1
O=C(O)CCCCCCCC(=O)O : 0.9

Provide each entry's inhibition from the list below.
1. Cc1nc2c(c(=O)n1Cc1ccccc1Cl)c1nc3ccccc3nc1n2Cc1ccco1
2. O=C(Nc1ccc(S(=O)(=O)Nc2nccs2)cc1)c1ccc(F)cc1
3. CC(C)Oc1ccc(/C=C(\NC(=O)/C=C/c2ccco2)C(=O)NCCc2nc3ccccc3[nH]2)cc1
4. Cc1oc(-c2ccc3c(c2)OCCO3)cc1C(=O)NC(CCC(=O)O)C(=O)O (stereo unspecified)
5. Cc1ccc(-n2ncc3c2CCCC3NC(=O)CCn2ccnc2C)cc1C (stereo unspecified)
6. Cc1nc2c(c(=O)n1Cc1ccco1)c1nc3ccccc3nc1n2Cc1ccccc1
7. COC(=O)CCC(NC(=O)c1cc(-c2ccc3c(c2)OCCO3)oc1C)C(=O)OC (stereo unspecified)

1: 38.1; 2: 11.1; 3: 9.4; 4: 20.1; 5: -3.7; 6: 50.6; 7: 61.5

* * *

Molecular target: Voltage-dependent N-type calcium channel subunit alpha-1B (Homo sapiens) (UniProt Q00975)
Assay: disruptors of CaV2.2 binding to Mint1 – biochemical, HTRF (AID 2073)
Conditions: HTRF protein-protein interaction, Mint1-CaV2.2; at 20 µM; stronger effect = higher value
The campaign covered roughly 290,000 compounds. About 570 (0.2%) were called active. About 1% were inconclusive and are not listed. This is one part of a sample in which actives are shown more often than they occur.
READOUT NAME: inhibition (%)
Give bare numbers, in %.

Answered examples (3):
CCOC(=O)C1=C(Cc2ccc(Cl)cc2)C(=O)c2ccccc2C1=O : 66.8
Cc1ccc(N2CCN(/N=C/C=C/c3ccccc3)CC2)cc1 : 2.8
Cc1[nH]n(C(N)=S)c(=O)c1N=Nc1cccc([N+](=O)[O-])c1C : 14.9

Would you mind listing inhibition for each of the following molecules?
1. CCOC(=O)C1=C(Cc2ccc(OC)cc2)C(=O)c2ccccc2C1=O
2. COC(=O)c1ccc(OCCOc2ccccc2C)cc1

61.9
26.5

List the reported inhibition of each molecule below.
1. CCOC(=O)C1=C(O)c2ccccc2C(=O)/C1=C\c1ccc(CC)cc1
2. NC(=S)n1[nH]c(-c2ccc([N+](=O)[O-])cc2)c(N=Nc2cccc(Cl)c2)c1=O
3. O=c1[nH]c(C2CCCN(S(=O)(=O)c3ccc(F)cc3)C2)nc2c1nnn2Cc1ccccc1 (stereo not given)
4. NC(=S)n1[nH]c(-c2ccc([N+](=O)[O-])cc2)c(N=Nc2ccccc2[N+](=O)[O-])c1=O
5. CNC(=O)c1c(O)c2cccc3c2n(c1=O)CCC3

[54.8, 64.1, -1, 69.4, 22.2]

This collection of values is drawn from PubChem BioAssay AID2073.
